target: NL20 human bronchial epithelial cells expressing human Z-AAT (Homo sapiens (Human), UniProt P01009, E366K); assay: AAT Function Assay (MSD Assay NL20-SI Cell Line); conditions: functionally active AAT (AAT-hNE complex, MSD) in supernatant of NL20 cells expressing human Z-AAT; read-out: NL20 Functional EC50
Sequence (P01009 25-418 E366K limits assumed): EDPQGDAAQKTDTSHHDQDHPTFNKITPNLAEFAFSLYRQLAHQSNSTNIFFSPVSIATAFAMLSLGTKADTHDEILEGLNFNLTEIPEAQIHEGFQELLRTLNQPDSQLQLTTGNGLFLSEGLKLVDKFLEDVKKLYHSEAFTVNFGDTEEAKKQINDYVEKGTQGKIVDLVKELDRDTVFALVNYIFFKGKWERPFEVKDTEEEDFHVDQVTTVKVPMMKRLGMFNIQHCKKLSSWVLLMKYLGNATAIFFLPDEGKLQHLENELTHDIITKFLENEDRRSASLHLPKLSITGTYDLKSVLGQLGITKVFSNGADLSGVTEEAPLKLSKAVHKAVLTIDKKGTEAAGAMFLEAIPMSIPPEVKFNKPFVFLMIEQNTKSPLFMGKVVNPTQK
reported_metric: EC50

[
  {
    "molecule": "Cc1cc(-n2c(C3CC3)c(C(Cc3ccccc3)C(=O)O)c3cc(O)ccc32)ccc1F (centres unmarked)",
    "EC50": "> 2 µM"
  },
  {
    "molecule": "COC[C@]1(C(=O)O)C[C@@H](c2c(C3CCOCC3)n(-c3ccc(F)c(C)c3)c3ccc(O)cc32)C1 [Compound 121]",
    "EC50": "> 2 µM"
  },
  {
    "molecule": "O=C(O)[C@]1(CF)C[C@H](c2c(C3CCOCC3)n(-c3ccc(F)cc3)c3ccc(O)cc32)C1",
    "EC50": "> 2 µM"
  },
  {
    "molecule": "Cc1cc(-n2c(C(C)C)c(C3CN(CC(=O)O)C3)c3cc(O)ccc32)ccc1F",
    "EC50": "> 2 µM"
  },
  {
    "molecule": "Cc1cc(-n2c(C#N)c(-c3ccc(C(=O)O)cc3)c3cc(O)ccc32)ccc1F",
    "EC50": "0.5 to 2 µM"
  }
]

Which EC50 is reported for this molecule? CS(N)(=O)=Cc1c(C#N)c2cc(O)ccc2n1-c1ccc(F)cc1 (centres unmarked)
> 2 µM

Entry CC(C)c1c(C(C)CCC(=O)O)c2cc(O)ccc2n1-c1ccc(F)cc1 (centres unmarked) has what EC50?
> 2 µM

Can you look up the measured EC50 of Cc1cc(-n2c(C(C)C)c([C@H]3C[C@@](C)(C(=O)O)C3)c3cc(O)ccc32)ccc1F for me?
> 2 µM

====

biological target: NL20 human bronchial epithelial cells expressing human Z-AAT (Homo sapiens (Human), UniProt P01009, E366K); assay: AAT Function Assay (MSD Assay NL20-SI Cell Line); settings: functionally active AAT (AAT-hNE complex, MSD) in supernatant of NL20 cells expressing human Z-AAT; read-out: NL20 Functional EC50
Item-by-item account of EC50

[
  {
    "compound": "CC(C)c1c(CC2(C(=O)O)CC2)c2cc(O)ccc2n1-c1ccc(F)cc1",
    "EC50": "500 to 2000 nM"
  },
  {
    "compound": "Cc1cc(-n2c(C(C)C)c([C@H]3C[C@@H](c4n[nH]c(=O)o4)C3)c3cc(O)ccc32)ccc1F",
    "EC50": "> 2000 nM"
  }
]

If you can, please state the reported EC50 value of Cc1cc(-n2c(C3CCOCC3)c(C[C@H]3C[C@@H](C(=O)O)C3)c3cc(O)ccc32)ccc1F .
500 to 2000 nM

Field request: EC50 | item: Cc1c(C2(C#N)CC2)c2cc(O)ccc2n1-c1ccc(F)cc1
> 2000 nM

====

biological target: NL20 human bronchial epithelial cells expressing human Z-AAT (Homo sapiens (Human), UniProt P01009, E366K); assay: AAT Function Assay (MSD Assay NL20-SI Cell Line); settings: functionally active AAT (AAT-hNE complex, MSD) in supernatant of NL20 cells expressing human Z-AAT; read-out: NL20 Functional EC50
reported_metric: EC50

Examples from the recorded data:
[
  {
    "molecule": "Cc1cc(-n2c(C(C)C)c(CCCC(=O)O)c3cc(O)ccc32)ccc1F [Compound 96]",
    "value_reported": "500 to 2000 nM"
  },
  {
    "molecule": "Cc1cc(-n2c(C3CCOCC3)c([C@H]3C[C@@](C(=O)O)(C(F)(F)F)C3)c3cc(O)ccc32)ccc1F [Compound 9]",
    "value_reported": "500 to 2000 nM"
  },
  {
    "molecule": "Cc1cc(-n2c(C(C)C)c([C@H]3C[C@@H](CC(=O)O)C3)c3cc(O)ccc32)ccc1F [Compound 63]",
    "value_reported": "500 to 2000 nM"
  }
]

Query (molecule): Cc1cc(-n2c(C(C)C)c([C@H]3C[C@H](C(=O)NS(C)(=O)=O)C3)c3cc(O)ccc32)ccc1F [Compound 220] ; field requested: EC50
> 2000 nM

Cited source for all entries: patent US20230339915A1
